Just for reference, patent US7601834B2 is where these values come from.

Assay: Pharmacokinetic analysis and oral bioavailability in rats
Assay type: in vivo, male Spagrue-Dawley rats
Settings: male, Sprague-Dawley, plasma; rat, PO, 100 mg/kg methotrexate; read-out: Elim Half-Life (converted)
Measure: half-life (h)

[
  {
    "Compound": "CN(Cc1cnc2nc(N)nc(N)c2n1)c1ccc(C(=O)N[C@@H](CCC(=O)O)C(=O)O)cc1 [Methotrexate, methotrexate]",
    "Result units": "h",
    "Reported measurement": 31.4
  }
]

* * *

Experiment: Pharmacokinetic analysis and oral bioavailability in rats
Type: in vivo, male Spagrue-Dawley rats
Conditions: male, Sprague-Dawley, plasma; rat, IV, 10 mg/kg methotrexate
Measure: Cmax (ng/mL)

[
  {
    "Molecule": "CN(Cc1cnc2nc(N)nc(N)c2n1)c1ccc(C(=O)N[C@@H](CCC(=O)O)C(=O)O)cc1 [Methotrexate, methotrexate]",
    "Reported measurement": 3780
  }
]
